Record form. Attribute: pIC50. Fill in for each entry.
system: Capan-1 (K-Ras G12V); test: CellTiter-Glo cell viability assay, 5-day treatment; format: cell-based; conditions: Homo sapiens, CAPAN-1, 120 h, 5-day treatment; read-out: Capan-1 Cell Viability assay data (K-Ras G12V, IC50)
pIC50: −log10 of the molar value.

COMPOUND: CCn1c(-c2cccnc2[C@H](C)OC)c2c3cc(ccc31)-c1cc(O)cc(c1)C[C@H](NC(=O)[C@H](C(C)C)N(C)C(=O)[C@@H]1OC[C@@H]3CCC[C@@H]31)C(=O)N1CCC[C@H](N1)C(=O)OCC(C)(C)C2
TARGET OR TEST SYSTEM: Capan-1 (K-Ras G12V)
RESULT: 6.00 to 7.00

Can you look up pIC50 on Capan-1 (K-Ras G12V) for CCn1c(-c2cnccc2COC)c2c3cc(ccc31)-c1cc(O)cc(c1)C[C@H](NC(=O)[C@H](C(C)C)N(C)C(=O)C1C[C@@H]1C)C(=O)N1CCC[C@H](N1)C(=O)OCC(C)(C)C2 (some centres unmarked) ? 6.00 to 7.00

----------
biological target: KRAS WT (Homo sapiens, UniProt P01116+P62937); test: Ras-Raf disruption / FRET / MOA assay (BRAF RBD); format: biochemical; details: Ras-Raf disruption, with Cyclophilin A; read-out: KRAS WT FRET data IC50
Sequence (P01116 1-169 isoform P01116-2 limits assumed): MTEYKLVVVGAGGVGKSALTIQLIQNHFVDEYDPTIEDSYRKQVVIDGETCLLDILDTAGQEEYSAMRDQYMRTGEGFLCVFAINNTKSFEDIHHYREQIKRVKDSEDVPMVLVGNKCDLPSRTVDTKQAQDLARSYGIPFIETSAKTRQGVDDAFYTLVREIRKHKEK
Sequence (P62937 whole entry): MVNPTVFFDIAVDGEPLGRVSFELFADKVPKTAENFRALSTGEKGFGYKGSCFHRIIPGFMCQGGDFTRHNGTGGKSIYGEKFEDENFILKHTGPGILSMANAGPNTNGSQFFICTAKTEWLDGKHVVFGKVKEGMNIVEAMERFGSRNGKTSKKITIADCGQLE
QUANTITY: IC50

MOLECULE: CCn1c(-c2cccnc2[C@H](C)OC)c2c3cc(ccc31)-c1cc(O)cc(c1)C[C@H](NC(=O)[C@H](C(C)C)N(C)C(=O)c1ccc([C@@H]3CN3)cc1)C(=O)N1CCC[C@H](N1)C(=O)OCC(C)(C)C2
RESULT: 100 to 1000 nM

Now consider the entry below.
Fill blank: measured IC50 of the molecule CCn1c(-c2cccnc2[C@H](C)OC)c2c3cc(ccc31)-c1cc(O)cc(c1)C[C@H](NC(=O)[C@H](C(C)C)N(C)C(=O)[C@H]1CCN(C(=O)[C@@H]3N[C@@H]3C3CC3)C1)C(=O)N1CCC[C@H](N1)C(=O)OCC(C)(C)C2 (atropisomer, axis not shown) is ____. 10 to 100 nM

----------
target: KRAS G12S (Homo sapiens, UniProt P01116+P62937, G12S); test: Disruption of BRAF RBD interaction with Ras (FRET / MOA assay, with Cyclophilin A); format: biochemical; details: read-out: KRAS G12S FRET data, IC50
Sequence (P01116 1-169 isoform P01116-2 G12S limits assumed, one chain of several): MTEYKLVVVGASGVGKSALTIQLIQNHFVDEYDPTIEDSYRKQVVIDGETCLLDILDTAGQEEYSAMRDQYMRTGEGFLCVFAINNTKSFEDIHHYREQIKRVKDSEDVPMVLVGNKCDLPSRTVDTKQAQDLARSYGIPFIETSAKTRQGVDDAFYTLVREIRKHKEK
pIC50: −log10 of the molar value.
Assign pIC50 to each entry below.

Some solved entries appear below for comparison.
MOLECULE: CCn1c(-c2cccnc2[C@H](C)OC)c2c3cc(ccc31)-c1cc(O)cc(c1)C[C@H](NC(=O)[C@H](C(C)C)N(C)C(=O)N1CC(N(C)C)C1)C(=O)N1CCC[C@H](N1)C(=O)OCC(C)(C)C2
pIC50: 6.00 to 7.00
--
MOLECULE: CCn1c(-c2cccnc2[C@H](C)OC)c2c3cc(ccc31)-c1csc(n1)C[C@H](NC(=O)[C@H]1CCCO1)C(=O)N1CCC[C@H](N1)C(=O)OCC(C)(C)C2 (atropisomer, axis not shown)
pIC50: 6.00 to 7.00
--
MOLECULE: CCn1c(-c2cccnc2[C@H](C)OC)c2c3cc(ccc31)-c1csc(n1)C[C@H](NC(=O)[C@H](C(C)C)N(C)C(=O)N1CC[C@]13CCCN(C)C3)C(=O)N1CCC[C@H](N1)C(=O)OCC(C)(C)C2
pIC50: 5.00 to 6.00
--
MOLECULE: CCn1c(-c2cccnc2[C@H](C)OC)c2c3cc(ccc31)-c1csc(n1)C[C@H](NC(=O)[C@H](C(C)C)N(C)C(=O)N1CC[C@@H](N(C)C)C1)C(=O)N1CCC[C@H](N1)C(=O)OCC(C)(C)C2 (atropisomer, axis not shown)
pIC50: 6.00 to 7.00
--
MOLECULE: CCn1c(-c2cccnc2[C@H](C)OC)c2c3cc(ccc31)-c1csc(n1)C[C@H](NC(=O)[C@H](C(C)C)N(C)C(=O)N1CC3(CC(O)C3)C1)C(=O)N1CCC[C@H](N1)C(=O)OCC(C)(C)C2 (atropisomer, axis not shown)
pIC50: 6.00 to 7.00

Provide pIC50 for all items below, preserving their order.
1. C=CC(=O)N1CC[C@H](C(=O)N(C)[C@H](C(=O)N[C@H]2Cc3cc(O)cc(c3)-c3ccc4c(c3)c(c(-c3cccnc3)n4CC)CC(C)(C)COC(=O)[C@@H]3CCCN(N3)C2=O)C(C)C)C1
2. CCn1c(-c2cccnc2[C@H](C)OC)c2c3cc(ccc31)-c1cc(O)cc(c1)C[C@H](NC(=O)[C@H](C(C)C)N(C)C(=O)C1CC13CCNC3)C(=O)N1CCC[C@H](N1)C(=O)OCC(C)(C)C2 (stereo partly drawn)

["5.00 to 6.00", "7.00 to 8.00"]

Provide each entry's pIC50 from the list below.
1. C=CC(=O)N1CCN(C(=O)N(C)[C@H](C(=O)N[C@H]2Cc3cc(O)cc(c3)-c3ccc4c(c3)c(c(-c3ccccc3CCOC)n4CC)CC(C)(C)COC(=O)[C@@H]3CCCN(N3)C2=O)C(C)C)CC1
2. CCn1c(-c2cccnc2[C@H](C)OC)c2c3cc(ccc31)-c1csc(n1)C[C@H](NC(=O)[C@H](C(C)C)N(C)C(=O)N1CCCC13CCN(C)CC3)C(=O)N1CCC[C@H](N1)C(=O)OCC(C)(C)C2

1: 5.00 to 6.00; 2: 7.00 to 8.00

From: patent US20230233569A1
